Entry source: patent US20140120095A1

molecular target: T1, recombinant human VEGF165 (human, UniProt P15692-4 27-191, biotinylated in the competition assays); experiment: AlphaScreen, hVEGF165/hVEGFR2-Fc competition; set-up: concentration or dose not given beside the values
T1 construct: Bought protein; also called hVEGF165; rhVEGF165
T1 sequence (P15692 other isoform, or with tags, fused parts or gaps): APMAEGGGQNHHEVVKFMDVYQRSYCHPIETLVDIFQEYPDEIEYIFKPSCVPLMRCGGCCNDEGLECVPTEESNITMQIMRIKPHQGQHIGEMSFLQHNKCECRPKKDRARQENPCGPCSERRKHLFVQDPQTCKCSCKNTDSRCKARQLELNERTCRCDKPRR
Consider the following binders; for each one, report its % inhibition.
Please provide the amount together with its unit, number first.

[[record]]
binder = "VEGFBII024 (VHH, not shown: small tags and cut ends, Bivalent anti-VEGF VHH; also called VEGFBII23B04-40GS-86H09) EVQLVESGGGLVQTGDSLRLSCEVSGRTFSSYSMGWFRQAQGKEREFVVAISKGGYKYDSVSLEGRFTISKDNAKNTVYLQINSLKPEDTAVYYCASSRAYGSSRLRLADTYEYWGQGTQVTVSSGGGGSGGGGSGGGGSGGGGSGGGGSGGGGSGGGGSGGGGSEVQLVESGGGLVQAGGSLRLSCTASGSAFKSYRMGWFRRTPGKEDEFVASISWTYGSTFYADSVKGRFTMSRDKAKNAGYLQMNSLKPEDTALYYCAAGAQSDRYNIRSYDYWGQGTQVTVSS"
val = "100%"


Okay, next one:
Would you kindly share the measured % inhibition for VEGFBII025 (VHH, not shown: small tags and cut ends, Bivalent anti-VEGF VHH; also called VEGFBII10E07-40GS-23B04) EVQLVESGGGLVQAGGSLRLSCAASGRTFSNYAMGWFRQAPGKERVLVADISSSGINTYVADAVKGRFTISRDNAKNTVYLQMNSLKPEDTAVYYCAASAWWYSQMARDNYRYWGQGTQVTVSSGGGGSGGGGSGGGGSGGGGSGGGGSGGGGSGGGGSGGGGSEVQLVESGGGLVQTGDSLRLSCEVSGRTFSSYSMGWFRQAQGKEREFVVAISKGGYKYDSVSLEGRFTISKDNAKNTVYLQINSLKPEDTAVYYCASSRAYGSSRLRLADTYEYWGQGTQVTVSS ?
100%
